Reference source: patent US20250145665A1

molecular target: TNFα (Homo sapiens); assay: TNF-Induced HEK-Blue Assay; type: cell-based; conditions: HEK-Blue-CD40L cells, NF-kB-driven secreted alkaline phosphatase reporter; TNFα 0.5 ng/ml; 18 h; read-out: TNF induced HEK-Blue assay IC50 value
Sequence (P01375 77-233 limits assumed): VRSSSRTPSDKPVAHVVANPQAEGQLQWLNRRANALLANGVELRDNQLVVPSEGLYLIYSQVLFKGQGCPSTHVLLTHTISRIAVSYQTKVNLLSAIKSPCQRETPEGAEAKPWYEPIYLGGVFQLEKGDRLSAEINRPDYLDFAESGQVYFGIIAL
Positions of bridges follow the written chain, without caps; N, C: chain ends. Non-standard residues stand in square brackets, D forms with d. Residues, ends and D or L forms follow the SMILES beside them. Ala(morpholin-4-yl) = N[C@@H](CN1CCOCC1)C(=O)O; Bip = N[C@@H](Cc1ccc(-c2ccccc2)cc1)C(=O)O; Sar = CNCC(=O)O
propertyMeasured: IC50

compound="CC(C)C[C@@H]1NC(=O)[C@H](CCC(N)=O)NC(=O)[C@H](C(C)C)NC(=O)[C@@H]2CCCN2C(=O)[C@H](C(C)C)NC(=O)[C@H](CCCNC(=N)N)NC(=O)[C@H](CC(=O)O)NC(=O)[C@@H]2CCCN2C(=O)CN(C)C(=O)[C@H](Cc2ccc(-c3ccccc3)cc2)NC(=O)[C@H](Cc2ccc(-c3ccccc3)cc2)NC(=O)[C@H](Cc2ccccc2)NC(=O)CSC[C@@H](C(=O)NCC(N)=O)NC1=O [Example 18] ({CH2CO}-F[Bip][Bip][Sar]PDRVPVQLCG-NH2; thioether N-13)" testedsystem="TNFα (Homo sapiens)" propertymeasured=IC50 result="200 to 2000 nM"

Value lookup for IC50; key = CC(C)C[C@@H]1NC(=O)[C@H](Cc2ccc(O)cc2)NC(=O)[C@H](C(C)C)NC(=O)[C@@H]2CCCN2C(=O)[C@H](C(C)C)NC(=O)[C@@H](CCCNC(=N)N)NC(=O)[C@H](CC(=O)O)NC(=O)[C@@H]2CCCN2C(=O)CNC(=O)[C@H](Cc2ccc(-c3ccccc3)cc2)NC(=O)[C@H](Cc2ccc(-c3ccccc3)cc2)NC(=O)[C@H](CN2CCOCC2)NC(=O)CSC[C@@H](C(=O)NCC(N)=O)NC1=O [Example 129] ({CH2CO}-[Ala(morpholin-4-yl)][Bip][Bip]GPD[dR]VPVYLCG-NH2; thioether N-13) 200 to 2000 nM
